Source of measurements: the supplement of paper PMC12645437

- test_system: T1, CRBN, Q96SW2;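 note: pooled lentiviral library of zinc finger degron-EGFP fusions in mCherry-positive Jurkat cells, FACS-sorted after compound exposure, with degron abundance counted by next-generation sequencing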
- T1 chain: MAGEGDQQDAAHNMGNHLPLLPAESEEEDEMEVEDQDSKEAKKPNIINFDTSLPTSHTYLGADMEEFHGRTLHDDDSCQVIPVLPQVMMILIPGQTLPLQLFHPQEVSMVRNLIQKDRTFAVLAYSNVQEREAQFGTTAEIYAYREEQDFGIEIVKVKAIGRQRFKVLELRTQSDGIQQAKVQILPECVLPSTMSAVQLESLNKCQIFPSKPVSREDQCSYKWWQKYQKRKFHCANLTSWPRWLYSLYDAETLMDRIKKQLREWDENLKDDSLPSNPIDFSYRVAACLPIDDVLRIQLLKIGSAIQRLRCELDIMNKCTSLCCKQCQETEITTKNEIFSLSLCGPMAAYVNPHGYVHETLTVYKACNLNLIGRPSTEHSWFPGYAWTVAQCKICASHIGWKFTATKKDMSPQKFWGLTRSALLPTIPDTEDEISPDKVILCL
- method_description: log2 fold change of degron read counts, EGFP-low vs EGFP+ sorted cells (limma voom), compound-induced degradation; higher = more compound-induced degradation of the degron-EGFP fusion; degrons are variants of IKZF1/3 zinc finger 2; compound dose not given here
- test_context: Jurkat; 18 h; compound: compound 19 (5-tert-butyl-thalidomide)
The full ranking holds about 8,300 sequences; the median of “log2 fold change of degron read counts, EGFP-low vs EGFP+ sorted cells (limma voom), compound-induced degradation” is about -1.1, and the highest 2% start at about 3.2. This excerpt belongs to a sample that is enriched for the highest values.
Listed sequences paired with reported log2 fold change of degron read counts
Give the figure by itself; no unit, no explanation.

Previously resolved entries follow.
What does the data say about its log2 fold change of degron read counts? Entry: FNCPQCGANFTQKGNLLRHIKL [46F_47N_49P_50Q_52G_53A_54N_55F_67L_, Q9UKT9]
-1.43

Return reported log2 fold change of degron read counts; argument: FQCEVCGAKFTQKGNLLRHIKL [46F_47Q_49E_50V_52G_53A_54K_55F_67L_, Q9UKT9]
0.414

// query log2 fold change of degron read counts value for entry FDCPICGHEFTQKGNLLRHIKL [46F_47D_49P_50I_52G_53H_54E_55F_67L_, Q9UKT9]
-3

Attention now shifts to the item below.
Can you share its log2 fold change of degron read counts? I mean this sequence: FICEVCGAKFTQKGNLLRHIKL [46F_47I_49E_50V_52G_53A_54K_55F_67L_, Q9UKT9]
-0.59
